The reported measurements were obtained from paper PMC8119466.

Target: recombinant PRL-1 (Homo sapiens)
Construct: 6xHis (N, cleaved yes); made in house; host or cells: E. coli One Shot BL21 Star
Experiment: In vitro phosphatase assay (DiFMUP hydrolysis), PRL-1
Type: biochemical
Settings: FDA-approved drug screen; compared to DMSO
Where a name gives a salt, the structure may show the parent alone. Starred links: 1 amine or outer side, 2 acyl side, 3 side chain; linkers in the order of their positions; H or OH if unused. Positions of bridges follow the written chain, without caps; N, C: chain ends. Non-standard residues stand in square brackets, D forms with d. Residues, ends and D or L forms follow the SMILES beside them. *: point of attachment. hTyr(3S-OH,4S-OH,3'-OSO3H) = N[C@H](C(=O)O)[C@H](O)[C@@H](O)c1ccc(O)c(OS(=O)(=O)O)c1; Orn(4R-OH,5R-OH) = O=C([C@H](C[C@@H](O)[C@@H](O)N[*:3])N[*:1])[*:2]; Pro(3S-OH,4S-Me) = C[C@H]1CN[C@H](C(=O)O)[C@H]1O; X1 = CCCCCOc1ccc(-c2cc(-c3ccc(C(=O)*)cc3)no2)cc1; Gln(3R-OH) = NC(=O)C[C@@H](O)[C@H](N)C(=O)O; Hyp = O=C(O)[C@@H]1C[C@@H](O)CN1
Lab note: anything with % Phosphatase Activity (compared to DMSO) PRL-1 below 90% is marked Fulfilled; values at 90% or higher are marked Not fulfilled.

{"molecule": "CC1(C)OC(=O)NC1=O", "discrete-label": "Not fulfilled"}
{"molecule": "COc1ccc(O)cc1", "discrete-label": "Not fulfilled"}
{"molecule": "CCOC(=O)C1=C(C)NC(C)=C(C(=O)OC)C1c1cccc([N+](=O)[O-])c1 (stereo not shown)", "discrete-label": "Fulfilled"}
{"molecule": "Cc1nc2ccc(CN(C)c3ccc(C(=O)N[C@@H](CCC(=O)O)C(=O)O)s3)cc2c(=O)[nH]1", "discrete-label": "Fulfilled"}
{"molecule": "CNS(=O)(=O)CCc1ccc2[nH]cc(C3CCN(C)CC3)c2c1", "discrete-label": "Not fulfilled"}
{"molecule": "CC(C)[C@H](O)C(=O)N[C@@H](C)C(=O)N[C@@H]1C(=O)N(C)CCc2ccccc21", "discrete-label": "Not fulfilled"}
{"molecule": "CN1CCC(=C2c3ccccc3CCc3sccc32)CC1.O=C(O)CC(O)C(=O)O [Pizotifen Malate]", "discrete-label": "Not fulfilled"}
{"molecule": "CCCCCOc1ccc(-c2cc(-c3ccc(C(=O)N[C@H]4C[C@@H](O)[C@@H](O)NC(=O)[C@@H]5[C@@H](O)[C@@H](C)CN5C(=O)[C@H]([C@H](O)CC(N)=O)NC(=O)[C@H]([C@H](O)[C@@H](O)c5ccc(O)c(OS(=O)(=O)[O-])c5)NC(=O)[C@@H]5C[C@@H](O)CN5C(=O)[C@H]([C@@H](C)O)NC4=O)cc3)no2)cc1.[Na+] [Micafungin Sodium] (X1-[Orn(4R-OH,5R-OH)]T[Hyp][hTyr(3S-OH,4S-OH,3'-OSO3H)][Gln(3R-OH)][Pro(3S-OH,4S-Me)]; lactam 1-C)", "discrete-label": "Fulfilled"}
{"molecule": "O=C1c2cccc(O)c2C(=O)c2c(O)cccc21", "discrete-label": "Not fulfilled"}
{"molecule": "CN(C)c1ccc(O)c2c1C[C@H]1C[C@H]3[C@H](N(C)C)C(O)=C(C(N)=O)C(=O)[C@@]3(O)C(O)=C1C2=O [Minocycline HCl]", "discrete-label": "Fulfilled"}
{"molecule": "NS(=O)(=O)c1cc(C(=O)O)c(NCc2ccco2)cc1Cl [Furosemide]", "discrete-label": "Not fulfilled"}
{"molecule": "C=CC[N+]1([C@H]2C[C@H]3[C@@H]4CC[C@H]5C[C@H](O)[C@@H](N6CCOCC6)C[C@]5(C)[C@H]4CC[C@]3(C)[C@H]2OC(C)=O)CCCC1 [Rocuronium Bromide]", "discrete-label": "Not fulfilled"}

###

Target: recombinant PRL-3 (Homo sapiens)
Construct: 6xHis (N, cleaved yes); made in house; host or cells: E. coli One Shot BL21 Star
Sequence (O75365 whole entry): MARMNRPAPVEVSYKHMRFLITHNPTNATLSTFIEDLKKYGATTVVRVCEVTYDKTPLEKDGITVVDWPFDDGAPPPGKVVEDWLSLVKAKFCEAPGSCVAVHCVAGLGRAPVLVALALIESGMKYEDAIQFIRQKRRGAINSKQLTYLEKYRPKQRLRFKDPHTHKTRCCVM
Assay: In vitro phosphatase assay (DiFMUP hydrolysis), PRL-3
Format: biochemical
Settings: FDA-approved drug screen; activity compared to DMSO
# key: entry, value: % Phosphatase Activity (compared to DMSO) PRL-3
reported-metric: % Phosphatase Activity (compared to DMSO) PRL-3

{"molecule": "CC1=C(CC(=O)O)c2cc(F)ccc2/C1=C\\c1ccc([S+](C)[O-])cc1 (centres unmarked) [Sulindac]", "result": "85%"}
{"molecule": "CNC(=O)c1ccc2cc([C@@]3(O)CCn4cncc43)ccc2c1 [TAK-700 (Orteronel)]", "result": "87%"}
{"molecule": "CCOC(=O)c1ccc(C#Cc2ccc3c(c2)C(C)(C)CCS3)nc1 [Tazarotene]", "result": "148%"}
{"molecule": "C[C@@H](c1ncncc1F)[C@](O)(Cn1cncn1)c1ccc(F)cc1F [Voriconazole]", "result": "86%"}
{"molecule": "O=C(O)CCC(=O)Nc1ccc(S(=O)(=O)Nc2nccs2)cc1 [Succinylsulfathiazole]", "result": "85%"}

###

Molecular target: recombinant PRL-1 (Homo sapiens, UniProt Q93096)
Construct: 6xHis (N, cleaved yes); made in house; host or cells: E. coli One Shot BL21 Star
Sequence (Q93096 whole entry): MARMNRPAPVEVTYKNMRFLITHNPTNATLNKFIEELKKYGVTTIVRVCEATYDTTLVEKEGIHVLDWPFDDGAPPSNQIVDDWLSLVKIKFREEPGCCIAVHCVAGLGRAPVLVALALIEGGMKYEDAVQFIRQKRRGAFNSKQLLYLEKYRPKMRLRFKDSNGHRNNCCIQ
Experiment: In vitro phosphatase assay (DiFMUP hydrolysis), PRL-1
Assay type: biochemical
Conditions: FDA-approved drug screen; compared to DMSO
# key: entry, value: % Phosphatase Activity (compared to DMSO) PRL-1
reported-metric: % Phosphatase Activity (compared to DMSO) PRL-1

{"compound": "COC(=O)C1=C(C#N)NC(C)=C(C(=O)OC(C)C)C1c1cccc([N+](=O)[O-])c1 (stereo not drawn)", "assay-target": "recombinant PRL-1 (Homo sapiens, UniProt Q93096)", "result": "88%"}
{"compound": "C[C@H]1COc2c(N3CCN(C)CC3)c(F)cc3c(=O)c(C(=O)O)cn1c23 [Levofloxacin hydrate]", "assay-target": "recombinant PRL-1 (Homo sapiens, UniProt Q93096)", "result": "322%"}
{"compound": "COC(=O)N[C@H](C(=O)N1CC2(CC2)C[C@H]1c1nc(-c2ccc3c(c2)C(F)(F)c2cc(-c4ccc5[nH]c([C@@H]6[C@H]7CC[C@H](C7)N6C(=O)[C@@H](NC(=O)OC)C(C)C)nc5c4)ccc2-3)c[nH]1)C(C)C", "assay-target": "recombinant PRL-1 (Homo sapiens, UniProt Q93096)", "result": "174%"}

###

Biological target: recombinant PRL-3 (Homo sapiens)
Construct: 6xHis (N, cleaved yes); made in house; host or cells: E. coli One Shot BL21 Star
Assay: In vitro phosphatase assay (DiFMUP hydrolysis), PRL-3
Assay type: biochemical
Settings: FDA-approved drug screen; compared to DMSO
reported-metric: % Phosphatase Activity (compared to DMSO) PRL-3 (%)

{"compound": "Cc1ccc([C@@H]2O[C@H](CO)[C@@H](O)[C@H](O)[C@H]2O)cc1Cc1ccc(-c2ccc(F)cc2)s1 [Canagliflozin]", "assay-target": "recombinant PRL-3 (Homo sapiens)", "quantitative-readout": 90}
{"compound": "Oc1c(I)cc(Cl)c2cccnc12 [5-Chloro-8-hydroxy-7-iodoquinoline]", "assay-target": "recombinant PRL-3 (Homo sapiens)", "quantitative-readout": 71}
{"compound": "C1N2CN3CN1CN(C2)C3 [Methenamine]", "assay-target": "recombinant PRL-3 (Homo sapiens)", "quantitative-readout": 87}
{"compound": "O=C(O)c1cc(/N=N/c2ccc(O)c(C(=O)O)c2)ccc1O [Olsalazine Sodium]", "assay-target": "recombinant PRL-3 (Homo sapiens)", "quantitative-readout": 61}
{"compound": "COc1cc2c(Oc3ccc4[nH]c(C)cc4c3F)ncnc2cc1OCCCN1CCCC1 [Cediranib (AZD2171)]", "assay-target": "recombinant PRL-3 (Homo sapiens)", "quantitative-readout": 90}
{"compound": "N#CC1(c2ccc(NC(=O)c3cccnc3NCc3ccncc3)cc2)CCCC1 [Apatinib]", "assay-target": "recombinant PRL-3 (Homo sapiens)", "quantitative-readout": 88}
{"compound": "COc1cc(Nc2c(C#N)cnc3cc(OCCCN4CCN(C)CC4)c(OC)cc23)c(Cl)cc1Cl [Bosutinib (SKI-606)]", "assay-target": "recombinant PRL-3 (Homo sapiens)", "quantitative-readout": 82}
{"compound": "C[C@@H]1CCO[C@H]2Cn3cc(C(=O)NCc4ccc(F)cc4F)c(=O)c(O)c3C(=O)N12 [Dolutegravir (GSK1349572)]", "assay-target": "recombinant PRL-3 (Homo sapiens)", "quantitative-readout": 99}
{"compound": "Cl.NCC1(CC(=O)O)CCCCC1 [Gabapentin HCl]", "assay-target": "recombinant PRL-3 (Homo sapiens)", "quantitative-readout": 85}

###

Target: recombinant PRL-2 (Homo sapiens)
Construct: 6xHis (N, cleaved yes); made in house; host or cells: E. coli One Shot BL21 Star
Sequence (Q12974 1-167): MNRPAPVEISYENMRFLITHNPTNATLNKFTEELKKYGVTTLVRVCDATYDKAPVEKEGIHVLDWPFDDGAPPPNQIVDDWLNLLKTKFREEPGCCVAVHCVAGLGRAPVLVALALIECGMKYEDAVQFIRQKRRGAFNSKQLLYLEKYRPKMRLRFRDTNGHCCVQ
Assay: In vitro phosphatase assay (DiFMUP hydrolysis), PRL-2;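 note: PRL-2 activity read as DiFMUP hydrolysis after 20 min at room temperature with drug, enzyme first pre-reduced at 4 °C for 20 min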
Type: biochemical
Conditions: FDA-approved drug screen; compared to DMSO
Where a name gives a salt, the structure may show the parent alone.
reported-metric: % Phosphatase Activity (compared to DMSO) PRL-2

{"compound": "CN1CCN(c2cc3c(cc2F)c(=O)c(C(=O)O)cn3-c2ccc(F)cc2)CC1 [Difloxacin HCl]", "result": "102%"}
{"compound": "CN1CCN2c3ccccc3Cc3ccccc3C2C1 (centres unmarked) [Mianserin HCl]", "result": "99%"}
{"compound": "CN1CCC(=C2c3ccccc3CCc3sccc32)CC1.O=C(O)CC(O)C(=O)O [Pizotifen Malate]", "result": "109%"}
{"compound": "CCC(NC(C)C)C(O)c1ccc(O)c(O)c1 (centres unmarked) [Isoetharine Mesylate]", "result": "98%"}
{"compound": "CCCCCCNC(=O)n1cc(F)c(=O)[nH]c1=O", "result": "95%"}
